Attribute: DC50
- tested system: Estrogen Receptor (ERα) in MCF-7 human ductal carcinoma breast cell line (Homo sapiens, UniProt P03372)
- Construct: endogenous in cells; host or cells: MCF-7
- Sequence (P03372 whole entry): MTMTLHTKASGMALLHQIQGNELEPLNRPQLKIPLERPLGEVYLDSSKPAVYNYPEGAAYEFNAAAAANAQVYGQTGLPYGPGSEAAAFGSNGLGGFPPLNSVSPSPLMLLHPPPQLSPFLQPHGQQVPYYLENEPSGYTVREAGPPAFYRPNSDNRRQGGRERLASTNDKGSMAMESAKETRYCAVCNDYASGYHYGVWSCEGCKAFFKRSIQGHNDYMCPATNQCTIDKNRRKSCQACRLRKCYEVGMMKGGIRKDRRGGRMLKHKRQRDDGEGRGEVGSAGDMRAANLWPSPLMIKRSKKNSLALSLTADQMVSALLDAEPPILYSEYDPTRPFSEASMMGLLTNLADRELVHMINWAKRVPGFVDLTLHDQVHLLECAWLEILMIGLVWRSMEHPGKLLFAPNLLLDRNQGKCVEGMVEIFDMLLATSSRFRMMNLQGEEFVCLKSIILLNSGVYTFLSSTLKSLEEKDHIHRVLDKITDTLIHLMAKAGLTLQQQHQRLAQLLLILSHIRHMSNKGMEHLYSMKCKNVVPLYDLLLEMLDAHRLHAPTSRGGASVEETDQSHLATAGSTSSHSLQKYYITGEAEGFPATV
- assay details: MCF-7 ER degradation assay (cell based immuno-fluorescence)
- measurement context: MCF-7 cells, 18-22 hours incubation, 50% reduction of ERα expression; single experiment or average of two or more; read-out: MCF-7 ER degradation IC50
The answer is to be given in nM; state only the numeric part.

Example cases with answers are listed next.
mol smiles	observation type	display unit	experimental result
Cc1ncsc1-c1ccc(CNC(=O)[C@@H]2C[C@@H](O)CN2C(=O)[C@@H](NC(=O)C(F)(F)OCCCOCCCOc2cc(F)c([C@@H]3c4[nH]c5ccccc5c4C[C@@H](C)N3CC(C)(C)F)c(F)c2)C(C)(C)C)cc1	DC50	nM	1.4
Cc1ncsc1-c1ccc([C@@H](CN(C)C)NC(=O)[C@@H]2C[C@@H](O)CN2C(=O)[C@@H](NC(=O)COCCOCCOCCOc2cc(F)c([C@@H]3c4[nH]c5ccccc5c4C[C@@H](C)N3CC(C)(C)F)c(F)c2)C(C)(C)C)cc1	DC50	nM	1
Cc1ncsc1-c1ccc(CNC(=O)[C@@H]2C[C@@H](O)CN2C(=O)[C@@H](NC(=O)c2ccc(CCCCCOc3cc(F)c([C@@H]4c5[nH]c6ccccc6c5C[C@@H](C)N4CC(C)(C)F)c(F)c3)cc2)C(C)(C)C)cc1	DC50	nM	22

Attention now turns to another entry.
Dear colleague, I am looking for the recorded DC50 of the following compound: Cc1ncsc1-c1ccc(CNC(=O)[C@@H]2C[C@@H](O)CN2C(=O)[C@@H](N(C)C(=O)COCCOCCOCCOc2cc(F)c([C@@H]3c4[nH]c5ccccc5c4C[C@@H](C)N3CC(C)(C)F)c(F)c2)C(C)(C)C)cc1
0.3
